All figures here come from patent US11415579B2.

assayed.system: Cdk2(T182C) (C177A) (Homo sapiens, UniProt P24941, C177A/T182C)
Construct: poly-histidine; made in house; host or cells: E. coli
test.description: Kinetic thiol consumption assay with Cdk2 mutant T182C
Format: binding
Parameters: key: rate constant with Cdk2 ÷ rate constant with model thiol (fold)
condition.notes: Cdk2 T182C, additional mutation C177A
Exam item: assign criterion met to entries whose Rate enhancement, Cdk2 T182C is below 0.7 and criterion not met to entries at or above 0.7. Note that a value of exactly 0.7 receives criterion not met.

Field: example entries. Status: answers known.
Q: Please determine if C=CC(=O)NC(C)c1ccc2c(c1)OCO2 (stereo not drawn) is below 0.7 in terms of Rate enhancement, Cdk2 T182C.
A: criterion met

Q: Queued: `C=CC(=O)Nc1ccccc1N1CCOCC1`
A: criterion met

Q: Repeat for the following compound: `C=CC(=O)N1CC(n2cccn2)C1`
A: criterion not met

Next:
Q: Below 0.7 on Rate enhancement, Cdk2 T182C? Entry `C=CC(=O)Nc1ccc(C23CC4CC(CC(O)(C4)C2)C3)cc1`
A: criterion not met

Q: Next: `C=CC(=O)N1CCOC2(CCCCC2)C1`
A: criterion not met

Q: Proceed to `C=CC(=O)Nc1cccc(-c2nnnn2C2CC2)c1`
A: criterion not met
